measured_on: Mu-type opioid receptor (Homo sapiens)
protocol_notes: Selectivity determined for mu opioid receptor to that of delta opioid receptor
Please mark Condition met if the recorded Ratio is equal to or greater than 50, and Condition not met if it falls below.

compound	label_value
C=CC(C)N1CCC23c4c5ccc(O)c4O[C@H]2c2[nH]c4ccccc4c2[C@H](C)C3C1C5 (stereo partly drawn)	Condition met
CN1CC[C@]23c4c5ccc(O)c4O[C@H]2c2[nH]c4ccccc4c2C[C@H]3[C@H]1C5	Condition met
C[C@H]1c2c([nH]c3ccccc23)[C@@H]2Oc3c(O)ccc4c3C23CCN(CC2CC2)C(C4)C13 (stereo partly drawn)	Condition not met
C[C@H]1c2c([nH]c3ccccc23)[C@@H]2Oc3c(O)ccc4c3C23CCN(C)C(C4)C13 (stereo partly drawn)	Condition met
COc1ccc2c3c1O[C@H]1c4[nH]c5ccccc5c4CC4C(C2)N(C)CCC341 (stereo partly drawn)	Condition met

Answer whether Ratio of COc1ccc2c3c1O[C@H]1c4[nH]c5ccccc5c4[C@H](C)C4C(C2)N(C)CCC341 (stereo partly drawn) is greater than or equal to 50. Condition met

* * *

measured_on: Kappa-type opioid receptor (Cavia porcellus, UniProt P41144)
Sequence (P41144 whole entry): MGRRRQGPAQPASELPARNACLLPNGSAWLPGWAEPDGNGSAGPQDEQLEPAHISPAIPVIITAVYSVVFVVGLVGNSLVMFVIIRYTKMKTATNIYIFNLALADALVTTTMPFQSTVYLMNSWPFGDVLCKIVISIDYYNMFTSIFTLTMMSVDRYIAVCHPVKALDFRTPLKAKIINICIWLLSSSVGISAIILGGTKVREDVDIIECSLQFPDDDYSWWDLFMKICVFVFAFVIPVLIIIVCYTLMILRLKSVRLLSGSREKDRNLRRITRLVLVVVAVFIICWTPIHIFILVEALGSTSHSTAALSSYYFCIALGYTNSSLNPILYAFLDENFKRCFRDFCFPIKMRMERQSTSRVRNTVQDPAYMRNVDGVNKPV
protocol_notes: Binding affinity for kappa opioid receptor by displacing U-69,593 was determined in [35S]-GTP gamma-S binding assay; Inactive
Assay type: functional
Reported Ki values for a set of molecules

Consider the following illustrative entries.
molecule	measured_on	Ki
CCCC[C@H]1c2c([nH]c3ccccc23)[C@@H]2Oc3c(OC)ccc4c3C23CCN(C)C(C4)C13 (stereo partly drawn)	Kappa-type opioid receptor (Cavia porcellus, UniProt P41144)	> 350 nM
COc1ccc2c3c1O[C@H]1c4[nH]c5ccccc5c4CC4C(C2)N(C)CCC341 (stereo partly drawn)	Kappa-type opioid receptor (Cavia porcellus, UniProt P41144)	> 350 nM

# ---- query molecule ----
Fill in the blank: the reported Ki of COc1ccc2c3c1O[C@H]1c4[nH]c5ccccc5c4[C@H](C)C4C(C2)N(C)CCC341 (stereo partly drawn) is ____. > 350 nM
